Where do the numbers come from? From patent US12514251B2.

- Test system: Plutella xylostella
- Assay details: Plutella xylostella, leaf dip method
- Format: in vivo
- Condition parameters: foliar, cabbage leaf dip, second instar larvae, 72 h after release, dead + moribund vs untreated control, read-out: percent mortality
Overview of reported mortality at 300 ppm across a group of compounds:

CCS(=O)(=O)c1ccc(-c2ccc(F)cc2)nc1-c1ccn2nc(C(F)(F)F)cc2n1    ≥ 70%
CCS(=O)(=O)c1ccc(CC#N)nc1-c1ccn2nc(C(F)(F)F)cc2n1    ≥ 70%
CCS(=O)(=O)c1ccc(-n2ccc(C(F)(F)F)n2)nc1-c1ccn2nc(C(F)(F)F)cc2n1    ≥ 70%
C=Cc1cnc(-c2ccn3nc(C(F)(F)F)cc3n2)c(S(=O)(=O)CC)c1    ≥ 70%

So what's the measured mortality at 300 ppm for this one? `CCS(=O)(=O)c1ccc(O)nc1-c1ccn2nc(C(F)(F)F)cc2n1`
≥ 70%
